# Experimental Target: FGFR2 (N549H) (Homo sapiens, UniProt P21802, N549H)
# Construct: purchased Millipore 14-742
# Sequence (P21802 22-821 N549H): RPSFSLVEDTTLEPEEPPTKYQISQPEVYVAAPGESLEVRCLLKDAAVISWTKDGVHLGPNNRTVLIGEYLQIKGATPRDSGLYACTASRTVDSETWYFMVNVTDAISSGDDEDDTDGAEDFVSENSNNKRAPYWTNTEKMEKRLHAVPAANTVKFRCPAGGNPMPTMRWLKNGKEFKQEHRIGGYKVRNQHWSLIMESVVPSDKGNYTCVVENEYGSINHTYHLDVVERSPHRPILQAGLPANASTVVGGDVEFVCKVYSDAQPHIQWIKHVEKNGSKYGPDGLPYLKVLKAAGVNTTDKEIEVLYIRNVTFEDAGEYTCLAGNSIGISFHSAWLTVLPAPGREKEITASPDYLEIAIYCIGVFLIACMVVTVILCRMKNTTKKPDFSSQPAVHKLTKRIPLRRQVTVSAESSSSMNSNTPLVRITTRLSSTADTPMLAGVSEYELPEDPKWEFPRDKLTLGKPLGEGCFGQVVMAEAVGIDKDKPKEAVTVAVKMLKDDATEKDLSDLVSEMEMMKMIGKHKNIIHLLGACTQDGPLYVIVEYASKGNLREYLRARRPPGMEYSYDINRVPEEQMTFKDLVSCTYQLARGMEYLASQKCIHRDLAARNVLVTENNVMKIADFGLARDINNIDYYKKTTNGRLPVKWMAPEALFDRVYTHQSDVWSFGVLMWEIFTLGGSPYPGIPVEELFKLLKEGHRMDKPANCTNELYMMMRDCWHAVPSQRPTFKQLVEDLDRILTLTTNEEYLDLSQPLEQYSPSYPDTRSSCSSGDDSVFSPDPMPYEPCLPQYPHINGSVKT
# Test Protocol: fluorescent ELISA assay for inhibitors of FGFR2 kinase
# Type: biochemical
# Run Parameters: Pyk2 peptide substrate, 60 minutes
Measured Parameter: IC50 (µM)

>>> quantitative_result("CN(c1nc(N)nc2[nH]ncc12)C1Cc2ccccc2N(Cc2ccc(Cl)c(Cl)c2)C1 (centres unmarked) [Compound 10]")
1.55
>>> quantitative_result("Nc1nc(NC2Cc3ccccc3N(S(=O)(=O)c3cccc4cccnc34)C2)c2cn[nH]c2n1 (centres unmarked) [Compound 28]")
21.5
>>> quantitative_result("COc1cccc(CN2CC(Nc3nc(N)nc4[nH]ncc34)Cc3ccccc32)c1 (centres unmarked) [Compound 127]")
11
>>> quantitative_result("CC(=O)c1ccc(S(=O)(=O)N2CC(Nc3nc(N)nc4[nH]ncc34)Cc3ccccc32)cc1 (centres unmarked) [Compound 48]")
17.2
>>> quantitative_result("Nc1nc(NC2Cc3ccccc3N(Cc3cccc(C(F)(F)F)c3)C2)c2cn[nH]c2n1 (centres unmarked) [Compound 5]")
10.7

(1) Nc1nc(NC2Cc3ccccc3N(S(=O)(=O)c3cccc(F)c3)C2)c2cn[nH]c2n1 (centres unmarked) [Compound 18]
(2) Nc1nc(NC2Cc3ccccc3N(c3ccccc3)C2)c2cn[nH]c2n1 (centres unmarked) [Compound 11]
query: Smaller IC50 value? Options are 1 and 2 Lab log: write the label of the selected item as the result.
result: 1

(I) Nc1nc(NC2Cc3ccccc3N(S(=O)(=O)c3cccc(Cl)c3)C2)c2cn[nH]c2n1 (centres unmarked) [Compound 26]
(II) Nc1nc(NC2Cc3ccccc3N(Cc3cccc(F)c3)C2)c2cn[nH]c2n1 (centres unmarked) [Compound 128]
query: Could you please tell me which of these two has the higher IC50: I or II ? Lab log: write the label of the selected item as the result.
result: II

(I) Nc1nc(NC2Cc3ccccc3N(S(=O)(=O)c3cccc4nsnc34)C2)c2cn[nH]c2n1 (centres unmarked) [Compound 17]
(II) Nc1nc(NC2Cc3ccccc3N(S(=O)(=O)c3cccs3)C2)c2cn[nH]c2n1 (centres unmarked) [Compound 23]
(III) Nc1nc(NC2Cc3ccccc3N(S(=O)(=O)c3ccccc3)C2)c2cn[nH]c2n1 (centres unmarked) [Compound 25]
query: Endpoint returns the given compounds ordered by ascending IC50. Give the order by naming the labels one after another as requested.
result: III, II, I
(III: 0.34 µM, II: 2.58 µM, I: 15.3 µM)

(P) Nc1nc(NC2Cc3ccccc3N(S(=O)(=O)c3csc4ccccc34)C2)c2cn[nH]c2n1 (centres unmarked) [Compound 51]
(Q) Nc1nc(NC2Cc3ccccc3N(S(=O)(=O)c3ccccc3F)C2)c2cn[nH]c2n1 (centres unmarked) [Compound 45]
(R) Nc1nc(NC2Cc3ccccc3N(Cc3cccc(-c4ccccc4)c3)C2)c2cn[nH]c2n1 (centres unmarked) [Compound 224]
query: // ranking: key=IC50, reverse=True Give the order by naming the labels one after another as requested.
result: R, P, Q

###

# Experimental Target: FGFR2 (N549H) (Homo sapiens, UniProt P21802, N549H)
# Test Protocol: fluorescent ELISA assay for inhibitors of FGFR2 kinase
# Run Parameters: Pyk2 peptide substrate, 60 minutes
Measured Parameter: IC50 (µM)

>>> quantitative_result("Nc1nc(NC2Cc3ccccc3N(Cc3ccc(Cl)c(Cl)c3)C2)c2cn[nH]c2n1 (stereo not shown)")
3.97

(a) Nc1nc(NC2Cc3ccccc3N(S(=O)(=O)c3cccc4ccccc34)C2)c2cn[nH]c2n1 (stereo not shown)
(b) Nc1nc(NC2Cc3ccccc3N(S(=O)(=O)c3ccc(F)cc3F)C2)c2cn[nH]c2n1 (stereo not shown)
query: Smaller IC50 value? Options are a and b Lab log: write the label of the selected item as the result.
result: b

Cited source for all entries: patent US8273754B2
